Assignment: determine reported GI50 for the given compounds.
Tested on: H929 human cancer cell lines
Assay: Cellular viability / proliferation (Cell TiterGlo, 72 h)
Format: cell-based
Details: Homo sapiens, NCI-H929, 72 h, read-out: GI50 on cellular proliferation of H929 human cancer cell lines, H929 cells, 72 h, Cell TiterGlo, 10% FBS
Protocol: Cellular Viability of Human Tumor Cell Lines To evaluate compound effect on cellular proliferation, cells were plated at 1,000 cells/well in 96-well tissue culture plates in a total volume of 90 μL medium supplemented with 10% FBS (Sigma, Saint Louis, Mo.). […] Luminescence is measured on a BioTek Cytation 3. Luminescence values are imported into a template in XLFit (Guildford, Surrey, UK) that uses a four-parameter fit to generate an IC50 value for each compound dilution series on the plate.
Express it in nM; write the number only.

Task: Given COCCOCc1cccn2nc(-c3ccc4c(c3)c(N3C[C@@H](C)n5c(c(CCCOc6cc(C)c(Cl)c(C)c6)c6ccc(Cl)c(-c7c(C)nn(C)c7C)c65)C3=O)cn4C)nc12 [Example 699] , state its recorded GI50.
Output: 350

Task: State the recorded GI50 for this entry: Cc1cc(OCCCc2c3n(c4c(-c5c(C)nn(C)c5C)c(Cl)ccc24)[C@H](C)CN(c2ccc4c(c2)c(C(=O)O)cn4C)C3=O)cc(C)c1Cl [Example 171]
Output: 1500

Task: Report GI50 for Cc1cc(OCCCc2c3n(c4c(-c5c(C)ncnc5C)c(Cl)ccc24)CCCN(c2cc(C(=O)O)c4cnn(C)c4c2)C3=O)cc(C)c1Cl [Example 155] please.
Output: 1400

Task: What value of GI50 has been reported for the following compound? Cc1cc(OCCCc2c3n(c4c(-c5c(C)nn(C)c5C)c(Cl)ccc24)[C@H](C)CN(c2cn(Cc4ccccn4)c4ccc(C(=O)O)cc24)C3=O)cc(C)c1Cl [Example 561]
Output: 510

Task: Fill blank: measured GI50 of the compound Cc1cc(OCCCc2c3n(c4c(-c5c(C)cc(OCCN6CCCC6)cc5C)c(Cl)ccc24)[C@H](C)CN(c2cn(C)c4ccc(C(=O)O)cc24)C3=O)cc(C)c1Cl [Example 508] is ____.
Output: 450

###

Would you kindly list pKi for each of these molecules?
target: Mcl-1 (Homo sapiens (Human)); test: TR-FRET binding assay, FITC-Bak peptide and MBP-tagged Mcl-1; details: read-out: Ki for Inhibition of Mcl-1 by TR-FRET assay
Sequence (Q07820 172-327): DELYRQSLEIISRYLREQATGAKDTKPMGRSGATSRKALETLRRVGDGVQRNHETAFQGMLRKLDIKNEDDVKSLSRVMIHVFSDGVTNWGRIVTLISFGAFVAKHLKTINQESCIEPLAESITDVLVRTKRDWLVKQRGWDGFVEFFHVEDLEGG
pKi here is simply -log10 of the concentration when that concentration is written in mol/L.

Task: Look up pKi for this molecule: COCCOCc1cccn2nc(-c3ccc4c(c3)c(N3C[C@@H](C)n5c(c(CCCOc6cc(C)c(Cl)c(C)c6)c6ccc(Cl)c(-c7c(C)nn(C)c7C)c65)C3=O)cn4C)nc12 [Example 699]
Output: 8.92

Task: Form field: reported pKi of Cc1cc(OCCCc2c3n(c4c(-c5c(C)nn(C)c5C)c(Cl)ccc24)[C@H](C)CN(c2cn(C[C@@H]4CCCN4C)c4ccc(C(=O)O)cc24)C3=O)cc(C)c1Cl [Example 690]
Output: 9.59

Task: Item under review: Cc1cc(OCCCc2c3n(c4c(-c5c(C)nn(C)c5C)c(Cl)ccc24)[C@H](C)CN(c2cn(CC(=O)N(C)C)c4ccc(-c5ncccn5)cc24)C3=O)cc(C)c1Cl [Example 637] . Reported pKi?
Output: 8.89

Task: Need pKi, item Cc1cc(OCCCc2c3n(c4c(-c5c(C)nn(C)c5C)c(Cl)ccc24)[C@H](C)CN(c2cn(C)c4ccc(-n5nnnc5C)nc24)C3=O)cc(C)c1Cl [Example 679]
Output: 8.51

Task: Please give the measured pKi for this molecule: Cc1cc(OCCCc2c3n(c4c(-c5c(C)nc(CN6CCN(C)CC6)nc5C)c(Cl)ccc24)[C@H](C)CN(c2cn(C)c4ccc(-c5ncn(C)n5)cc24)C3=O)cc(C)c1Cl [Example 502]
Output: 8.54

Task: // returns reported pKi for input Cc1cc(OCCCc2c3n(c4c(-c5c(C)cc(OCCN6CCCC6)cc5C)c(Cl)ccc24)[C@H](C)CN(c2cn(C)c4ccc(C(=O)O)cc24)C3=O)cc(C)c1Cl [Example 508]
Output: 8.62

Task: I have this molecule here, Cc1cc(OCCCc2c3n(c4c(-c5c(C)nn(C)c5C)c(Cl)ccc24)[C@H](C)CN(c2cc(N(C)C(=O)CN(C)C)cc4c(C(=O)O)cn(C)c24)C3=O)cc(C)c1Cl [Example 611] , and I need its recorded pKi.
Output: 8.96

Task: I am curious: what pKi value has been reported for Cc1cc(OCCCc2c3n(c4c(-c5c(C)ncnc5C)c(Cl)ccc24)[C@H](C)CN(c2cn(C)c4ccc(-c5ncn(C)n5)cc24)C3=O)cc(C)c1Cl [Example 574] ?
Output: 8.62
